- target.of.assay: DENND5A
- test.description: reporter assay of Huesken 2005
- condition.details: siRNA
Oligonucleotides are written 5' to 3', each unit as a sugar letter and its base; * is a phosphorothioate linkage, no mark a phosphodiester; rarer units and linkages stand in square brackets, end groups in braces. Plain capitals give the bases only. d = 2'-deoxy (DNA); r = 2'-OH (RNA)
I would appreciate it if you labelled entries Y when normalised inhibition (eCFP-eYFP dual reporter) is 50% or higher, otherwise N.

# substance, label
data = [
    ("sense rCrUrUrUrCrArArUrGrCrCrGrUrCrGrArUrUrAdTdT / antisense rUrArArUrCrGrArCrGrGrCrArUrUrGrArArArGdAdC", "Y"),
    ("sense rCrArGrArUrGrUrUrUrGrCrArUrCrUrUrUrCrAdTdT / antisense rUrGrArArArGrArUrGrCrArArArCrArUrCrUrGdGdG", "Y"),
    ("sense rCrCrArGrCrCrUrUrUrGrUrGrArUrCrUrCrCrUdTdT / antisense rArGrGrArGrArUrCrArCrArArArGrGrCrUrGrGdCdA", "N"),
    ("sense rArCrArUrCrCrArGrArArCrArUrCrGrGrGrGrAdTdT / antisense rUrCrCrCrCrGrArUrGrUrUrCrUrGrGrArUrGrUdGdC", "N"),
    ("sense rArCrCrUrGrCrCrCrUrUrCrCrUrCrUrCrArArGdTdT / antisense rCrUrUrGrArGrArGrGrArArGrGrGrCrArGrGrUdAdG", "Y"),
]

====

- target.of.assay: MRFAP1
- test.description: reporter assay of Huesken 2005
- condition.details: siRNA
Oligonucleotides are written 5' to 3', each unit as a sugar letter and its base; * is a phosphorothioate linkage, no mark a phosphodiester; rarer units and linkages stand in square brackets, end groups in braces. Plain capitals give the bases only. d = 2'-deoxy (DNA); r = 2'-OH (RNA)
Listing of recorded normalised inhibition (eCFP-eYFP dual reporter) by entry.
measured.quantity: normalised inhibition (eCFP-eYFP dual reporter) (%)

# substance, numeric.readout
rows = [
    ("sense rGrGrCrCrUrUrArCrArCrGrGrCrUrArGrGrArCdTdT / antisense rGrUrCrCrUrArGrCrCrGrUrGrUrArArGrGrCrCdCdA", 60),
    ("sense rUrCrUrUrGrGrGrUrGrArCrCrUrGrArUrArGrCdTdT / antisense rGrCrUrArUrCrArGrGrUrCrArCrCrCrArArGrAdAdA", 45.6),
    ("sense rArGrUrGrArUrGrGrCrGrArUrUrGrGrCrUrGrAdTdT / antisense rUrCrArGrCrCrArArUrCrGrCrCrArUrCrArCrUdCdA", 85.8),
    ("sense rCrArCrCrCrUrGrGrArGrArArGrCrUrGrArArAdTdT / antisense rUrUrUrCrArGrCrUrUrCrUrCrCrArGrGrGrUrGdTdC", 66.7),
    ("sense rGrGrArUrUrGrUrArUrUrGrUrUrUrCrUrArUrGdTdT / antisense rCrArUrArGrArArArCrArArUrArCrArArUrCrCdTdC", 93.3),
    ("sense rUrCrCrCrUrGrArArCrUrUrUrGrGrGrUrCrCrCdTdT / antisense rGrGrGrArCrCrCrArArArGrUrUrCrArGrGrGrAdGdC", 53.3),
    ("sense rUrUrGrArUrUrUrGrGrArArArArUrGrCrGrCrUdTdT / antisense rArGrCrGrCrArUrUrUrUrCrCrArArArUrCrArAdAdG", 68.1),
    ("sense rUrGrUrUrGrGrGrArCrArGrCrCrUrArArCrUrCdTdT / antisense rGrArGrUrUrArGrGrCrUrGrUrCrCrCrArArCrAdAdA", 85.6),
    ("sense rArArArGrCrArGrCrGrGrArGrArUrGrCrGrGrCdTdT / antisense rGrCrCrGrCrArUrCrUrCrCrGrCrUrGrCrUrUrUdGdC", 35.6),
    ("sense rArCrCrUrGrArUrArArGrCrArUrUrUrGrArGrGdTdT / antisense rCrCrUrCrArArArUrGrCrUrUrArUrCrArGrGrUdCdT", 46.8),
    ("sense rCrUrArUrCrUrArUrUrArUrArArCrCrUrGrCrCdTdT / antisense rGrGrCrArGrGrUrUrArUrArArUrArGrArUrArGdTdG", 90.4),
    ("sense rArCrCrUrGrGrGrArGrArArGrGrGrUrCrGrGrAdTdT / antisense rUrCrCrGrArCrCrCrUrUrCrUrCrCrCrArGrGrUdCdA", 77.6),
]

====

Listing of recorded normalised inhibition (eCFP-eYFP dual reporter) by entry.
- target.of.assay: TMEM63B
- test.description: reporter assay of Huesken 2005
- condition.details: siRNA
Oligonucleotides are given in HELM: sugar(base)linkage, 5' to 3'; d 2'-deoxyribose, r ribose, m 2'-O-methylribose, p phosphate. ss, as = sense and antisense strand
measured.quantity: normalised inhibition (eCFP-eYFP dual reporter) (%)

# substance, unit.abbreviation, numeric.readout
measured = [
    ("RNA1{r(G)p.r(A)p.r(G)p.r(A)p.r(G)p.r(G)p.r(C)p.r(G)p.r(C)p.r(A)p.r(A)p.r(C)p.r(G)p.r(U)p.r(G)p.r(A)p.r(A)p.r(G)p.r(C)p.d(T)p.d(T)}|RNA2{r(G)p.r(C)p.r(U)p.r(U)p.r(C)p.r(A)p.r(C)p.r(G)p.r(U)p.r(U)p.r(G)p.r(C)p.r(G)p.r(C)p.r(C)p.r(U)p.r(C)p.r(U)p.r(C)p.d(G)p.d(G)}$$$RNA1{StrandType:ss}|RNA2{StrandType:as}$", "%", 56.8),
    ("RNA1{r(C)p.r(U)p.r(G)p.r(C)p.r(C)p.r(G)p.r(G)p.r(C)p.r(C)p.r(A)p.r(A)p.r(G)p.r(C)p.r(U)p.r(G)p.r(G)p.r(A)p.r(C)p.r(A)p.d(T)p.d(T)}|RNA2{r(U)p.r(G)p.r(U)p.r(C)p.r(C)p.r(A)p.r(G)p.r(C)p.r(U)p.r(U)p.r(G)p.r(G)p.r(C)p.r(C)p.r(G)p.r(G)p.r(C)p.r(A)p.r(G)p.d(G)p.d(T)}$$$RNA1{StrandType:ss}|RNA2{StrandType:as}$", "%", 65.2),
    ("RNA1{r(G)p.r(A)p.r(C)p.r(U)p.r(U)p.r(U)p.r(G)p.r(A)p.r(C)p.r(C)p.r(A)p.r(A)p.r(A)p.r(G)p.r(G)p.r(G)p.r(A)p.r(C)p.r(A)p.d(T)p.d(T)}|RNA2{r(U)p.r(G)p.r(U)p.r(C)p.r(C)p.r(C)p.r(U)p.r(U)p.r(U)p.r(G)p.r(G)p.r(U)p.r(C)p.r(A)p.r(A)p.r(A)p.r(G)p.r(U)p.r(C)p.d(A)p.d(A)}$$$RNA1{StrandType:ss}|RNA2{StrandType:as}$", "%", 89.5),
    ("RNA1{r(A)p.r(A)p.r(C)p.r(C)p.r(A)p.r(C)p.r(C)p.r(A)p.r(U)p.r(U)p.r(G)p.r(C)p.r(C)p.r(A)p.r(A)p.r(C)p.r(U)p.r(U)p.r(G)p.d(T)p.d(T)}|RNA2{r(C)p.r(A)p.r(A)p.r(G)p.r(U)p.r(U)p.r(G)p.r(G)p.r(C)p.r(A)p.r(A)p.r(U)p.r(G)p.r(G)p.r(U)p.r(G)p.r(G)p.r(U)p.r(U)p.d(C)p.d(T)}$$$RNA1{StrandType:ss}|RNA2{StrandType:as}$", "%", 34.2),
    ("RNA1{r(G)p.r(C)p.r(C)p.r(U)p.r(A)p.r(C)p.r(G)p.r(C)p.r(C)p.r(U)p.r(G)p.r(G)p.r(A)p.r(U)p.r(G)p.r(A)p.r(U)p.r(G)p.r(U)p.d(T)p.d(T)}|RNA2{r(A)p.r(C)p.r(A)p.r(U)p.r(C)p.r(A)p.r(U)p.r(C)p.r(C)p.r(A)p.r(G)p.r(G)p.r(C)p.r(G)p.r(U)p.r(A)p.r(G)p.r(G)p.r(C)p.d(T)p.d(G)}$$$RNA1{StrandType:ss}|RNA2{StrandType:as}$", "%", 72.3),
]

====

- target.of.assay: P2RX3
- test.description: reporter assay of Huesken 2005
- condition.details: siRNA
Oligonucleotides are written 5' to 3', each unit as a sugar letter and its base; * is a phosphorothioate linkage, no mark a phosphodiester; rarer units and linkages stand in square brackets, end groups in braces. Plain capitals give the bases only. d = 2'-deoxy (DNA); r = 2'-OH (RNA)
I would appreciate it if you labelled entries fulfilled when normalised inhibition (eCFP-eYFP dual reporter) is 60% or higher, otherwise not fulfilled.

# substance, label
records = [
    ("sense rArCrUrCrCrUrUrCrArCrCrCrGrGrCrUrCrGrAdTdT / antisense rUrCrGrArGrCrCrGrGrGrUrGrArArGrGrArGrUdAdT", "fulfilled"),
    ("sense rCrCrArCrArGrCrGrGrArGrArArGrCrArGrUrCdTdT / antisense rGrArCrUrGrCrUrUrCrUrCrCrGrCrUrGrUrGrGdTdC", "fulfilled"),
    ("sense rGrArCrUrUrGrGrArCrArArGrGrCrCrUrGrGrGdTdT / antisense rCrCrCrArGrGrCrCrUrUrGrUrCrCrArArGrUrCdGdC", "fulfilled"),
    ("sense rGrArUrUrCrUrGrCrCrCrArGrArGrArGrUrGrAdTdT / antisense rUrCrArCrUrCrUrCrUrGrGrGrCrArGrArArUrCdCdT", "fulfilled"),
    ("sense rCrUrArCrGrCrCrArArCrArGrArGrUrCrArUrGdTdT / antisense rCrArUrGrArCrUrCrUrGrUrUrGrGrCrGrUrArGdAdG", "not fulfilled"),
    ("sense rUrUrGrUrUrArCrUrGrArArArArUrCrArGrArUdTdT / antisense rArUrCrUrGrArUrUrUrUrCrArGrUrArArCrArAdTdC", "not fulfilled"),
]
